Experiment: Permeability of the compound by PAMPA
Measure: Papp (×10⁻⁶ cm/s)
Return type: number; implicit unit ×10⁻⁶ cm/s.

[in] # query: Papp of entry "CN1CCC(c2nc(-c3ccc(F)c(NS(C)(=O)=O)c3)c(-c3ccnc(NCC4CC4)n3)s2)CC1"
[out] 5.7

----------
Test: Metabolic stability in mouse liver microsomes assessed as compound remaining after 40 mins
Assay type: ADME, microsome
Conditions: read-out: Stability
Measure: remaining at 40 min (%)
I only need the number, in %, no unit after it.

[in] Param item = "CN1CCC(c2nc(-c3cccc(S(C)(=O)=O)c3)c(-c3ccnc(Nc4ccc(N5CCNCC5)cc4)n3)s2)CC1" ; retrieve measured remaining at 40 min.
[out] 89

[in] Same again, this time with "CN1CCC(c2nc(-c3ccc(F)c(NS(C)(=O)=O)c3)c(-c3ccnc(NCC4CC4)n3)s2)CC1"
[out] 89

----------
Assay read-out IC50; system under study: cGMP-dependent protein kinase (Plasmodium falciparum).
Sequence (W7JX98 whole entry): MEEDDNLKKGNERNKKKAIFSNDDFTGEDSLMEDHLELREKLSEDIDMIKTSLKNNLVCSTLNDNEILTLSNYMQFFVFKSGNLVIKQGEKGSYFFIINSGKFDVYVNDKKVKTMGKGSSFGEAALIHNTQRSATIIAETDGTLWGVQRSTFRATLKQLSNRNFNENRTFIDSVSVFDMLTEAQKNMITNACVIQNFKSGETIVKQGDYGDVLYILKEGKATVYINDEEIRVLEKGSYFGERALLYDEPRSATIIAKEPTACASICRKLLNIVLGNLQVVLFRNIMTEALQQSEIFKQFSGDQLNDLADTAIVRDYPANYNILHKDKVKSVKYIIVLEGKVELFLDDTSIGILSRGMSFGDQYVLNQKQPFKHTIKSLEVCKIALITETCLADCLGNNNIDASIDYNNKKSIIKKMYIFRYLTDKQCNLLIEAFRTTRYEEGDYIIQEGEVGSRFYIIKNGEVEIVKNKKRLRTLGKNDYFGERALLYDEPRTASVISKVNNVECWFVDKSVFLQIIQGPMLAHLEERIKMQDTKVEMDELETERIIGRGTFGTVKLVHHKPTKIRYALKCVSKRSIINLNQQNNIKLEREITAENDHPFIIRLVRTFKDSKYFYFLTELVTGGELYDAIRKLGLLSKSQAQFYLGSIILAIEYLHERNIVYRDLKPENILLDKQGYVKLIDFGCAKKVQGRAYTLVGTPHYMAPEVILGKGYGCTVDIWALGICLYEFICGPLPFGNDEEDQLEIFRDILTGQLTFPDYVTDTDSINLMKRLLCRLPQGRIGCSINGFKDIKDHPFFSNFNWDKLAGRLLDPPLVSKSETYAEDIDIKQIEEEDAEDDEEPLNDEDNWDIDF
Answer in nM, number only, no unit symbol.

[in] // returns reported IC50 for input "CN1CCC(c2nc(-c3ccc(F)cc3)c(-c3ccnc(N)n3)s2)CC1"
[out] 17

[in] Then what about the compound "CN1CCC(c2nc(-c3cccc(S(C)(=O)=O)c3)c(-c3ccnc(NC4CCOCC4)n3)s2)CC1" ?
[out] 9

[in] Thanks! And "CN1CCC(c2nc(-c3cccc(S(C)(=O)=O)c3)c(-c3ccnc(NC4CC4)n3)s2)CC1" ?
[out] 17

[in] "CN1CCC(c2nc(-c3cccc(S(C)(=O)=O)c3)c(-c3ccnc(NCC4CC4)n3)s2)CC1" ?
[out] 6

[in] Please do the same for "CN(C)Cc1ccn2c(-c3ccnc(N)n3)c(-c3ccc(F)cc3)nc2c1" as well.
[out] 3

[in] Thanks! And CN1CCC(c2nc(-c3ccc(F)cc3)c(-c3ccncn3)s2)C1 (stereo not given) ?
[out] 6

[in] Same for "Fc1ccc(-c2nc(C3CCNCC3)sc2-c2ccnc(Nc3ccc(N4CCNCC4)cc3)n2)cc1"
[out] 0.5

[in] What do we get for "CN1CCC(c2nc(-c3ccc(F)cc3)c(-c3ccnc(Nc4ccc(N5CCN(C)CC5)cc4)n3)s2)CC1" ?
[out] 1

[in] Likewise for "CN1CCC(c2cc(-c3ccncc3)c(-c3ccc(F)cc3)[nH]2)CC1" ?
[out] 6

[in] How about "CN1CCC(c2nc(-c3cccc(S(C)(=O)=O)c3)c(-c3ccnc(N)n3)s2)CC1" ?
[out] 33

----------
Experiment: Kinetic solubility of the compound
Give solubility kinetic for every item shown.

[in] Which solubility kinetic value belongs to "CN1CCC(c2nc(-c3cccc(S(C)(=O)=O)c3)c(-c3ccnc(Nc4ccc(N5CCNCC5)cc4)n3)s2)CC1" ?
[out] 208 µM

[in] Consider next the compound "CN1CCC(c2nc(-c3ccc(F)c(NS(C)(=O)=O)c3)c(-c3ccnc(NCC4CC4)n3)s2)CC1" in the same way.
[out] 190 µM

----------
Task for the reader: assign each of the following molecules its reported IC50.
Molecular target: UniProt:W7JX98
Report as a plain number; the unit µM is understood.

[in] What IC50 value was documented for this molecule, "Cc1nc(C2CCN(C)CC2)sc1-c1ccnc(Nc2ccc(N3CCNCC3)cc2)n1" ?
[out] 0.149

[in] Lookup "CN1CCC(c2nc(-c3ccc(F)cc3)c(-c3ccnc(Nc4ccc(C5CCNCC5)cc4)n3)s2)CC1"
[out] 0.0003

[in] Repeat with "CN1CCC(c2nc(-c3cccc(S(C)(=O)=O)c3)c(-c3ccnc(Nc4ccc(N5CCNCC5)cc4)n3)s2)CC1"
[out] 0.0009

[in] How about "CNc1nccc(-c2sc(C3CCN(C)CC3)nc2-c2ccc(F)cc2)n1" ?
[out] 0.015

[in] Now try "CN1CCC(c2nc(C3CC3)c(-c3ccnc(Nc4ccc(N5CCNCC5)cc4)n3)s2)CC1" .
[out] 0.047
